meta.source: patent US20250092017A1

Test system: Ba/F3-FL-EGFR-del19-C797S
PROTOCOL DETAILS: CellTiter-Glo proliferation, Ba/F3-FL-EGFR-del19-C797S
Type: cell-based
ASSAY SETUP: 72 h, proliferation, 72 hours, CellTiter-Glo; read-out: Ba/F3-FL-EGFR-del19-C797S IC50/nM
Recorded IC50, one value per entry.
Kindly answer with a numeric value in nM, unit omitted.

| COMPOUND | RESULT NUMBER |
| --- | --- |
| CC(C)c1ccc(N2C[C@H](CS(C)(=O)=O)[C@H]2C)c2cnc(Nc3ccnc(-c4cnn(S(=O)(=O)N(C)C)c4)n3)cc12 [Compound H28] | 48 |

Using known records, supply IC50 for CC(C)c1ccc(N2CC(CS(C)(=O)=O)C2)c2cnc(Nc3ccnc(-c4cnn(S(=O)(=O)N(C)C)c4)n3)cc12 [Compound H19]
57

Using known records, supply IC50 for CO[C@@H]1CCN(c2nccc(Nc3cc4c(C(C)C)ccc(N5C[C@H](N(C)S(C)(=O)=O)[C@H]5C)c4cn3)n2)C[C@@H]1F [Compound P40a]
53
